Reference for the values: ChEMBL document CHEMBL1126283

Test system: Cavia porcellus
assay_notes: Ex vivo inhibition of U-46,619-induced aggregation of guinea pig platelets after peroral administration of 10 mg/kg dose at 1 hr time
Type: functional
assay_context: route oral
readout_label: Concentration ratio
Answers are plain numbers.

Here is how some compounds turned out for Concentration ratio.
Request: I'd like to know its Concentration ratio. The compound in question is CC(CC(CCCCNS(=O)(=O)c1ccc(Cl)cc1)CCCc1cccnc1)C(=O)O (stereo not given)
Response: 9

Request: I'd like to know its Concentration ratio. The compound in question is CCOC(=O)CCC(CCCCNS(=O)(=O)c1ccc(Cl)cc1)CCCc1cccnc1 (stereo not given)
Response: 3

Request: I'd like to know its Concentration ratio. The compound in question is O=C(O)CCCCO/N=C(/c1cccnc1)c1cccc(C(F)(F)F)c1 [RIDOGREL]
Response: 5.6

Attention now turns to another entry.
Request: I'd like to know its Concentration ratio. The compound in question is O=C(O)COC(CCCCNS(=O)(=O)c1ccc(Cl)cc1)CCCc1cccnc1 (stereo not given)
Response: 2.6
